- tested on: Serine/threonine-protein kinase Nek1 (Homo sapiens)
- Sequence (whole entry): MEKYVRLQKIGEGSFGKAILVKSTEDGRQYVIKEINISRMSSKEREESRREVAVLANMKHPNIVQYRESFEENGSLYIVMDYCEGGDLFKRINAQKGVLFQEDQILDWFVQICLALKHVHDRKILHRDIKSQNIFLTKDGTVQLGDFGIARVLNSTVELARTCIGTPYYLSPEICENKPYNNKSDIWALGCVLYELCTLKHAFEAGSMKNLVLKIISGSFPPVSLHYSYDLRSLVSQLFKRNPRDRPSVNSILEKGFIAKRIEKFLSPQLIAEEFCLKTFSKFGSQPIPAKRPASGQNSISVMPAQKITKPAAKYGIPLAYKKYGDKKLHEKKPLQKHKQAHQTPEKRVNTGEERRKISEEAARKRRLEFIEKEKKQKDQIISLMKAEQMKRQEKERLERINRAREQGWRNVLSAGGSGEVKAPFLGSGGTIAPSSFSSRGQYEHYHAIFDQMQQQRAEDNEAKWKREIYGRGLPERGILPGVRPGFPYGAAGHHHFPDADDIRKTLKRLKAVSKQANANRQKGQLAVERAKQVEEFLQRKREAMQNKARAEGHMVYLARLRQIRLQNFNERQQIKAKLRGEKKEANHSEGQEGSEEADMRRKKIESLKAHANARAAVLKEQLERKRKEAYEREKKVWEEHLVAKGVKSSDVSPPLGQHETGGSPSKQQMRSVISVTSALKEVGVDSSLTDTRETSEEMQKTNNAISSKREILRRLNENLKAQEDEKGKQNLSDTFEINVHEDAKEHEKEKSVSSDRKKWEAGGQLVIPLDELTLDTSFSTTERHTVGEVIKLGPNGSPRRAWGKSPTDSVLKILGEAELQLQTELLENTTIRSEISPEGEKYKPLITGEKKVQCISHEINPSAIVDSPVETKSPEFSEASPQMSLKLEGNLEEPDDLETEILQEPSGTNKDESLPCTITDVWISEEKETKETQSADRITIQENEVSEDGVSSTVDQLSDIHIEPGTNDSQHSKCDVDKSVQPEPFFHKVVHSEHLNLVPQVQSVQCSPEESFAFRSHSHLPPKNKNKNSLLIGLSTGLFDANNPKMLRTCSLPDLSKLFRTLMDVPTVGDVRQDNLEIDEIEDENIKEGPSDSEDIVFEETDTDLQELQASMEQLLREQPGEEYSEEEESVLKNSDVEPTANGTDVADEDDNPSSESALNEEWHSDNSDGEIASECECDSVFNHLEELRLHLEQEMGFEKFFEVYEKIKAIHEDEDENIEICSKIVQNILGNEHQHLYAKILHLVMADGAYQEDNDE
- setup conditions: at 1 µM
- Description: GSK_PKIS: NEK1 mean inhibition at 1 uM [Nanosyn]
quantity measured: inhibition (%)
Your answer should be a plain number; it is taken to be in %.

Worked cases, inhibition given:
molecule	tested on	inhibition [%]
CC1=C(C(=O)Nc2ccc3[nH]nc(C)c3c2)C(c2ccc(C(F)(F)F)cc2)CC(=O)N1 (stereo unspecified)	Serine/threonine-protein kinase Nek1 (Homo sapiens)	2.57
COc1cc(N2CCN(C(C)C)CC2)ccc1Nc1nc(Nc2cccc(F)c2C(=O)O)c2cc[nH]c2n1	Serine/threonine-protein kinase Nek1 (Homo sapiens)	5.01
Fc1cccc(COc2ccc(Nc3ncncc3C#Cc3ccccc3)cc2Cl)c1	Serine/threonine-protein kinase Nek1 (Homo sapiens)	4.09
CCn1c(-c2nonc2N)nc2cncc(C(=O)NCCNC)c21	Serine/threonine-protein kinase Nek1 (Homo sapiens)	5.36
CS(=O)(=O)Nc1ccc(-c2cc(-c3ccccc3)cc(C(N)=O)c2N)cc1	Serine/threonine-protein kinase Nek1 (Homo sapiens)	1.25

So for CS(=O)(=O)CCNCc1ccc(-c2ccc3ncnc(Nc4ccc(OCc5ccccc5)cc4)c3c2)o1 , the logged inhibition turned out to be 2.22

So for COc1ccccc1-c1cc(/C=C2\C(=O)Nc3ncc(Br)cc32)cc(Br)c1O , the logged inhibition turned out to be 0.39

So for NS(=O)(=O)c1ccc(N/N=C2\C(=O)Nc3cccc(CCc4ccncc4)c32)cc1 , the logged inhibition turned out to be 1.7

So for CS(=O)(=O)CCNCc1ccc(-c2ccc3ncnc(Nc4ccc(OCc5cccc(C(F)(F)F)c5)cc4)c3c2)o1 , the logged inhibition turned out to be 8.21
